- procedure_summary: yeast display, Sf9 membrane polyspecificity reagent, FACS + sequencing; frameworks hold sequencing errors
observable: polyreactivity (PSR sort gate)

# example entries with known answers
# sequence_record, polyreactivity (PSR sort gate)
records = [
    ("QVQLVESGGGLVQAGGSLRLSCAASGSTFQPYTMGWYRQAPGTERELVAAITGRGGSTYYADSVKGRFTISRDNAKNTVYLQMNSLKPEDTAVYYCAAGAYRRNKSDYYYWGQGTQVTVSS", "low polyreactivity"),
    ("QVQLVESGGGLVQAGGSLRLSCAASGSTFDYNAMGWYRQAPGKERELVATITSTGRTNYADSVKGRFTISRDNAKNTVYLQMNSLKPEDTAVYYCAKRTFFGKARGGPTYRLYYWGQGTQVTVSS", "high polyreactivity"),
    ("QVQLVESGGGLVQAGGSLRISCAASGRIFLGNAMGWYRQAPGKERELVAAITNGGGSTYYADSVKGRFTISRDNAKNTVYLQMNSLKPEDTAVYYCARGYKKSVQRFEYWGQGTQVTVSS", "high polyreactivity"),
    ("QVQLVESGSGLVQAGGSLRLSCAASGSIFVNYGMGRYRQAPGKERELVAAINRNGGRTYYADSVKGRFTISRDNAKNTVYLQMNSLKPEDTAVYYCNALYPGGLSLSRLDYWGQGTQVTVSS", "high polyreactivity"),
    ("QVQLVESGGGLVQAGGSLRLSCAASGRTFSYYARGWYRQAPGKERELVAAISSGGSTNYADSVKGRFTISRDNAKNTVYFQMNSLKPEDTAVYYCAALWSGYKFNYWGQGTQVTVSS", "low polyreactivity"),
]

Ask: Tell me polyreactivity (PSR sort gate) reported for QVQLVESGGGLVQAGGSLRLSCAASGFILNKNVMGWYRQAPGKERELVAAITASGSSTYYADSVKGRFTISRDNAKNTVYLQMNSLKPEDTAVYYCAARGYWSSYAPRFNYWVQGTQVTVSS
Reply: high polyreactivity

Ask: Tell me polyreactivity (PSR sort gate) reported for QVQLVDSGGGLVQAGGSLRLSCSASGIIFRYYTMVWYRQDPGKERELVASISRSGGNTYYADSVKGRFTISRDNAMNTVYLQMNSLKPEDTAVYYCAARRHQKYQESNYWGQGTQVTVSS
Reply: high polyreactivity

Ask: Tell me polyreactivity (PSR sort gate) reported for QVQLVESGGGLDQAGGSLRLSSAASGFTFRRNAMGWYRQAPGTERELVASITQRGGSTYYADSVKGRFTISRDNAKNTVYLQMNSLKPEATAVYYCAAGPTSRRWYDYWGQGTEVTVSS
Reply: high polyreactivity

* * *

- procedure_summary: yeast display, Sf9 membrane polyspecificity reagent, FACS + sequencing; frameworks hold sequencing errors
observable: polyreactivity (PSR sort gate)

# sequence_record, observable, recorded_value
measured = [
    ("QVQLVESGGGLVQAGGSLRLSCAASGITFDKYAMGWYRQAPGKERELVARITSGGGTNYADSVKGRFTISRDNAKNTVYLQMNSLKPEDTAVYSCNKRTSPKRFDYWGQGTQVTVSS", "polyreactivity (PSR sort gate)", "high polyreactivity"),
    ("QVQLVESGGGLVQAGGSLRLSCAASGRTFLRNAMGWYRQAPGKERELVAAISSGGGRTYYADSVKGRFTISRDNAKNTVYLQMNSLKPEDTAVYYCAALYQYLGGVYEGYYWGQGTQVTVSS", "polyreactivity (PSR sort gate)", "high polyreactivity"),
    ("QVQLVESGGGLVQAGGSLRLICAASGITFVEYSMGWYRQAPGKERDLVAAISWSGVRTRYADSVKGRFTISRDNAKNTVYLQMNSLKPEDTAVYYCYTVPRGGGGVRILDYWGQGTQVTESS", "polyreactivity (PSR sort gate)", "high polyreactivity"),
    ("QEQLQESGSGLVQAGGSLRLSCAASGNIFHDWVMGWYRQAPGKERELVAAISPGAITYYADSVKGRFTISRDNAKNTVYLQTNSLKPEDTAVYYCAAYYIVEYLHGYWGQGTRVTVSS", "polyreactivity (PSR sort gate)", "low polyreactivity"),
]

Please turn your attention to the following entry.
Ask: Tell me polyreactivity (PSR sort gate) reported for QVQLVESGGGLVQAGGSLRLSCAASGSTFDSYAMGWYRQAPGKERELVAAITNGGSTYYADSVKGRFTISRDNAKNTVYLQMNSLKPEDTEVYYCATDDYLLDYLYDYWGQGTQVTVSS
Reply: low polyreactivity

* * *

- procedure_summary: yeast display, Sf9 membrane polyspecificity reagent, FACS + sequencing; frameworks hold sequencing errors
observable: polyreactivity (PSR sort gate)

# sequence_record, recorded_value
rows = [
    ("QVQLVESGGGLVQAGGSLRLSCAASGRIFWSNAMGWYRQAPGKEREFVAAISSSGGRTYYADSVKGRFTISRDNAKNTVYLQMNSLKPEDTAVYYCAASNGYQAVTYDYWGQGTQVTVSS", "high polyreactivity"),
    ("QVQLVESGGGLVQAGGSLRLSCAASGFTFRGNVMGWYRQAPGKERELVAGISSTGSTYYADSVKGRFTISRDNAKNTVYLQMYSVKPVDTAVYYCAAAAIYFRYDYWGQGTQVTVSS", "high polyreactivity"),
]

* * *

- procedure_summary: yeast display, Sf9 membrane polyspecificity reagent, FACS + sequencing; frameworks hold sequencing errors
observable: polyreactivity (PSR sort gate)

# example entries with known answers
# sequence_record, polyreactivity (PSR sort gate)
records = [
    ("QVQLVESGGGIVQAGGSLRLSCAASGNNIGGNAMGWYRQAPGKERELVAAISNSGVRTYYADSVKGRFTISRDNAKNSVDLQMNSLKPEDTAVYYCYVLGNYYGKFDYWGQGTQVTVSS", "high polyreactivity"),
    ("QVQLVESGGGLVQAGGSLRLSCAASGSIFDYNAMGWYRQAPGKERELVAAISVSGGSTYYADSVKGRFTISRDNAKNTVYLQMNSLKPEDTAVYYCAAETWTYGWSYDYWGQGTQVTVSS", "high polyreactivity"),
    ("QVQLVESGGGLVQAGGSLRLSCAASGLTFSIYAMGWYRPAPGKERELVAGISQSGGSTYADSVKGRFTISRDNAKNTVYLQMNSLKPEDTAVYYCAKEFEWVGSPSTVDGLEYWGHGTQVTVSS", "low polyreactivity"),
    ("QVQLVESGGGLVQAGGSLRLSCAASGRIFRYYAMGWYRQAPGKERELVAAISRSGSTNYADSVKGRFTISRDNAKNTVYLQMNSLKPEDTAVYYCAADSNYLYFWRRYKRMDYWGQGTQVTVSS", "high polyreactivity"),
    ("QVQLVESAGGLVQAGGSLRLSCAASGYTFVNYAMGWYRQAPGKERELVAAISRSGGSTYYADSVKGRFTISRDHAKNTVYLQMNSLKPEDTAVYYCAKVVQGDHPYDYWGQGTQVTVSS", "high polyreactivity"),
    ("QVQLVESGGGLVQAGGSLRLSCAASGSISFINAMGWYRQAPGKERELVAAISGSGGSTYYADSVKGRFTISRDNAKNTVYLQMNSLKPEDTAVYYCAADYRIHWYIAYGYWGQGTQVTVSS", "low polyreactivity"),
    ("QVQLVESGGGLVQAGGSLRLSCAASGLIFPKYAMGWYRQAPGNEREFVAAISGRGGTTYYADSVKGRFTISRDNAKNTVYLQMNSLKPEDTAVYYCAAGGPWANIYGNGYWGQGTQVTVSS", "high polyreactivity"),
    ("QVPLVESGGGLVQAGGSLRLSCAASGRIFKSNAMGWYRQAPGKERELVAAISYSGGSTYYADSVKGRFTISRDNAKKTVYLQMNRLKPEDTAVYYCNKYFRREYDYWGQGTQVTVSS", "high polyreactivity"),
]

Ask: Tell me polyreactivity (PSR sort gate) reported for QVQLVESGGGIVQAGGSLRLSCAASGRTSWYYAMGWYRQAPGKERELVAAITASGGSTYADSVKGRFTISRDNAKTSVYLQMNRLKPEDSAVYYCAAERPYSRVGYYYWGQGTQVTVSS
Reply: high polyreactivity

Ask: Tell me polyreactivity (PSR sort gate) reported for QVQLVESGGGLVQAGGSLRLSCAASGRIFNHYAMGWYRQAPGKERELVASITSGAGTNYADSVKGRFTISRDNAKNTVYLQMNSLKPEDTAVYYCNADLYDYYYSDGDYWGQGTQVTVSS
Reply: high polyreactivity

Ask: Tell me polyreactivity (PSR sort gate) reported for QVHLVESGGGLVQAGGSLRLSCAASGSIFFTYAMGWYRQAPGKETEWVAAISSGGSPYYADSVKGRFTISRDNANNTVYLQMNSLKPEDTEVYYCAARGYRLVPVDFSYWGQGTQVTVSS
Reply: low polyreactivity

* * *

- procedure_summary: yeast display, Sf9 membrane polyspecificity reagent, FACS + sequencing; frameworks hold sequencing errors
observable: polyreactivity (PSR sort gate)

# example entries with known answers
# sequence_record, recorded_value
rows = [
    ("QVQLVESGGGLVQAGGSLRLSCAASGSIFKSYAMGWYRQAPGKERELVAAITYRGGSTYYADSVKGRFTISRDNAKNTVYLQMNSLKPEDTAVYYCAKDQHRYYQVWGDYWGQGTQVTVSS", "high polyreactivity"),
    ("QVQLVESGGGVVQARGSLRLSCAASGSTFDVNAMGWYRQAPWKDRELVAAISWNSGTTYYADSVKGRFTISRDNAKNSVYLQMNSLKPEDTAVYYCAASYGTGRRSKYGYWGQGTQVTVSS", "high polyreactivity"),
    ("QVQLVESGGGLVQAGGSLRLSCAASGSIFAFNAMGWYRQAPGKERELVAAITRSGGRTFYADSVKGRFTISRDNAKNTVYLQMNSLKPEDTAVYYCAASEWRFSSYGGVKYYVEYDYWGQGTQVTVSS", "high polyreactivity"),
    ("QVQLVESGGGLVQAGGSLRLSCAASGSTFRPYAMGWYREAPGKERELVAAITSTGGSTYYADSVKGRFTISRDNAKNSVSLQMNSLKPDDTAVYYCAAPLVRYAGPYDYWGQGTQVTVSS", "low polyreactivity"),
    ("QVQLVESGGGLVQAGGSLRLSCAASGFTLFGYAMGWYRPAPGKERELVAAITRSGGSTFYADSVKGRFTISRDNAKNTVYLQMNSLKPEDTAVYYCAAVRSKLYYYWGQGTQVTVSS", "high polyreactivity"),
    ("QVQLVESGGGLVQAGGSLRLSCAASGSTFAYYVMGWYRQAPGKERELVAAITSSGGRTYYADSVKGRFTISRDNAKNTVYLQMNSLKPEDTAVYYWAKVSQRRVDNSDYDYWGQGTQVTVSS", "high polyreactivity"),
    ("QVQLVESGGGLVQAGGSLRLSCAASGSICSLYAKGWYRQEPGKERELVAAISSSGTSTYYADSVKGRFTISRDNSKNTVYLQMNSLKLEDTAVYYCNAYRRRATYNGDYWGQGTQLTVSS", "high polyreactivity"),
    ("QVQLVESGGGLVQAGGSLRLSCAASGRIFWYYAMGWYRQAPGKERELVARISSSGGSTYYADSVKGRFTISRDNAKNTVYLQMNSLKPEDTAVYYCAAEHYILYDYLWAYDYWGQGTQVTVSS", "high polyreactivity"),
    ("QVQLVESGGGLVQAGGSLRLSCAASGSIFVDNAMGWYRQAPGKERELVAAITDSGGRTYYADSVKGRFTISRDNAKNTVYLQMNSLKPEDTAVYYCAAGQSGYAGRRPAFGYWGQGTQVTVSS", "low polyreactivity"),
    ("QVQLVESGGGLVQAGGSLRLSCAASGSIFTYYAMGWYRQAPGKERELVAAISWNGGTTYYADSVKGLFTISRDNAKNTVYLQMNSLKPEDTAVYYCNKDGSYRYDYWGQGTQVTVSS", "low polyreactivity"),
]

Please turn your attention to the following entry.
Ask: Tell me polyreactivity (PSR sort gate) reported for QVQLVDSGGGLVQAGGSLRISCAASGYIFSANAMGWYRKAPGKEREFVAAISSTGGSTYYADSVKGRFTISRDTAKNTVYLQMNSLKTEDTSVYYFEAYIRRYFHYDYWGQGTQVTVSS
Reply: high polyreactivity
